- Species on record: Homo sapiens
- assay_explanation: tissue or blood
- Description: Analysis of TXB2 as a function of COX-1 activity in heparinized human whole blood.
Hi there, I'd appreciate the recorded IC50 for every entry that follows.

- molecule: "Cc1onc(-c2ccccc2)c1-c1ccc(S(N)(=O)=O)cc1 [VALDECOXIB]"
  IC50: "25.4 µM"
- molecule: "Cc1ccc(-c2cc(C(F)(F)F)nn2-c2ccc(S(N)(=O)=O)cc2)cc1 [CELECOXIB]"
  IC50: "6.67 µM"

Query molecule follows.
Return IC50 for the following molecule: NS(=O)(=O)c1ccc(-c2c(-c3ccccc3)noc2CO)cc1 [HYDROXYLATED DERIVATIVE]
> 50 µM

* * *

- assay_system: Prostaglandin G/H synthase 1 (Homo sapiens)
- Sequence (P23219 whole entry): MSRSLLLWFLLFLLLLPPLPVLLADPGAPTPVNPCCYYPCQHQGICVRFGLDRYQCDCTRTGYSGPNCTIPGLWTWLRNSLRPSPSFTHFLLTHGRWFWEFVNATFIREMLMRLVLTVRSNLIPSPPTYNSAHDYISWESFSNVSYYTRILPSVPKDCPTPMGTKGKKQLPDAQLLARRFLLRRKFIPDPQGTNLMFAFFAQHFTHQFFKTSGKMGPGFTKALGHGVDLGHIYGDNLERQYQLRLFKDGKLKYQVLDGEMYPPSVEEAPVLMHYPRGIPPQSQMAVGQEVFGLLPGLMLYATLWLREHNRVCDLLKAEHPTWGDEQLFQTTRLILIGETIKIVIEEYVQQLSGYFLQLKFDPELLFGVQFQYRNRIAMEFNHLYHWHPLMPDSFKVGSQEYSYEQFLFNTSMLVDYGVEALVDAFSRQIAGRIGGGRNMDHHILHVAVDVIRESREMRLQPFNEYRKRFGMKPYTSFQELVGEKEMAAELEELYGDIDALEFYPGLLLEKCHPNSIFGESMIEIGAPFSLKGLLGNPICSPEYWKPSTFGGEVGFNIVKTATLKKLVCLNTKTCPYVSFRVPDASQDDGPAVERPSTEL
measurement_type: pIC50
Answers are plain numbers, as −log10 of the molar value.

Return pIC50 for the following molecule: NS(=O)(=O)c1ccc(-c2c(-c3ccccc3)noc2CO)cc1 [HYDROXYLATED DERIVATIVE]
2.95
